# protocolDetails: Cmax in Swiss CD-1 mouse at 3 mg/kg, po administered as single dose by LC-MS analysis
# Assay type: ADME, organism-based
# Parameters: route oral, dose 3 mg/kg
# testConditions: in vivo

- recordSmiles: "C[C@H](C#Cc1cccc(C(=O)NCCC(c2ccc(F)cc2)c2ccc(F)cc2)c1)N(O)C(N)=O"
  Cmax (nM): 700

----------
# IC50 per entry
# assaySystem: Polyunsaturated fatty acid 5-lipoxygenase (Homo sapiens)
# Sequence (P09917 whole entry): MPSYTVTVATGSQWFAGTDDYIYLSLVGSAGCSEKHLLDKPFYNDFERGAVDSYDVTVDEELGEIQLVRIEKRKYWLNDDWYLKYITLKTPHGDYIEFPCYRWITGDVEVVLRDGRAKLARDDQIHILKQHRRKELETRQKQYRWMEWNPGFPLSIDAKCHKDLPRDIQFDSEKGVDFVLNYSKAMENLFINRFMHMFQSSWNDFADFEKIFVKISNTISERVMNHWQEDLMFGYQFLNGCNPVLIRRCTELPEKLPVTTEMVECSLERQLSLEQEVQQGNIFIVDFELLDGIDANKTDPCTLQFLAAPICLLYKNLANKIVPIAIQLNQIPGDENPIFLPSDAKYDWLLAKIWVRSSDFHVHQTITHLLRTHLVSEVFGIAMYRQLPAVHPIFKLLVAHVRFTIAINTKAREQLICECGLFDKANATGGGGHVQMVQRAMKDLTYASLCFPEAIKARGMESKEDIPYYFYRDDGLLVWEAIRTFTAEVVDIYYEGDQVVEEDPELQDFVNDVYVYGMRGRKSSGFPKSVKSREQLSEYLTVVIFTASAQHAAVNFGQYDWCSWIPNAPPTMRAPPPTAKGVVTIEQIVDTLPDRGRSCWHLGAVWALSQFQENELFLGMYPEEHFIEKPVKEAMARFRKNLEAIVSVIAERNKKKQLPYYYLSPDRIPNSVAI
# protocolDetails: Inhibition of 5-LOX (unknown origin) expressed in Escherichia coli BL21-(DE3) pre-incubated for 15 mins before AA substrate addition and measured after 10 mins by HPLC/UV assay

- compound: "C[C@H](C#Cc1cccc(C(=O)NCCN(c2ccccc2)c2ccccc2)c1)N(O)C(N)=O"
  IC50: "110 nM"
- compound: "C[C@H](C#Cc1cccc(C(=O)NCCC(c2ccccc2)c2ccc(S(N)(=O)=O)cc2)c1)N(O)C(N)=O (some centres undefined)"
  IC50: "1000 nM"
- compound: "CC(C#Cc1cccc(C(=O)NCCC(c2ccccc2)c2ccc(F)cc2)c1)N(O)C(N)=O (centres undefined)"
  IC50: "160 nM"
- compound: "CC(C#Cc1cccc(C(=O)NCCC(c2ccccc2)c2ccc(C(F)(F)F)cc2)c1)N(O)C(N)=O (centres undefined)"
  IC50: "150 nM"
- compound: "CC(C#Cc1cncc(C(=O)NCc2ccccc2C(F)(F)F)c1)N(O)C(N)=O (centres undefined)"
  IC50: "10000 nM"
- compound: "CC(C#Cc1cccc(C(=O)NCc2cccc(F)c2)c1)N(O)C(N)=O (centres undefined)"
  IC50: "4000 nM"
- compound: "C[C@H](C#Cc1cccc(C(=O)NCc2ccccc2C(F)(F)F)c1)N(O)C(N)=O"
  IC50: "600 nM"
- compound: "CC(C#Cc1cccc(C(=O)NCc2ccccc2C(F)(F)F)c1)N(O)C(N)=O (centres undefined)"
  IC50: "700 nM"
- compound: "C[C@H](C#Cc1cccc(C(=O)NCCC(c2ccccc2)c2ccc(NS(C)(=O)=O)cc2)c1)N(O)C(N)=O (some centres undefined)"
  IC50: "900 nM"
- compound: "CC(C#Cc1ccc(C(=O)NCc2ccccc2C(F)(F)F)o1)N(O)C(N)=O (centres undefined)"
  IC50: "4000 nM"
- compound: "CC(C#Cc1cccc(C(=O)NCCC(c2ccccc2)c2ccc(OC(F)(F)F)cc2)c1)N(O)C(N)=O (centres undefined)"
  IC50: "110 nM"
- compound: "CC(C)C(C#Cc1cccc(C(=O)NCc2ccccc2C(F)(F)F)c1)N(O)C(N)=O (centres undefined)"
  IC50: "500 nM"
- compound: "CC(C#Cc1cccc(C(=O)NCc2ccc(Cl)cc2Cl)c1)N(O)C(N)=O (centres undefined)"
  IC50: "600 nM"
- compound: "C[C@H](C#Cc1cccc(C(=O)NCCC(c2ccc(F)cc2)c2ccc(C(F)(F)F)cc2)c1)N(O)C(N)=O (some centres undefined)"
  IC50: "220 nM"
- compound: "C[C@H](C#Cc1cccc(C(=O)NCC[C@H](c2ccc(F)cc2)c2ccc(C(F)(F)F)cc2)c1)N(O)C(N)=O"
  IC50: "230 nM"
- compound: "Cc1ccc(C(=O)NCc2ccccc2C(F)(F)F)cc1C#CC(C)N(O)C(N)=O (centres undefined)"
  IC50: "1700 nM"
- compound: "CCCC(C#Cc1cccc(C(=O)NCc2ccccc2C(F)(F)F)c1)N(O)C(N)=O (centres undefined)"
  IC50: "300 nM"
- compound: "CCC(C#Cc1cccc(C(=O)NCc2ccccc2C(F)(F)F)c1)N(O)C(N)=O (centres undefined)"
  IC50: "500 nM"
- compound: "CC(C#Cc1cccc(C(=O)NCCC(c2ccccc2)c2ccc(Cl)cc2)c1)N(O)C(N)=O (centres undefined)"
  IC50: "120 nM"
- compound: "C[C@H](C#Cc1ccc(Cc2ccc(F)cc2)s1)N(O)C(N)=O"
  IC50: "90 nM"
- compound: "C[C@H](C#Cc1cccc(C(=O)NCCC(c2ccc(F)cc2)c2ccc(F)cc2)c1)N(O)C(N)=O"
  IC50: "110 nM"
- compound: "C[C@H](C#Cc1cccc(C(=O)NCCC(c2ccccc2)c2ccc(Cl)c(Cl)c2)c1)N(O)C(N)=O (some centres undefined)"
  IC50: "96 nM"
- compound: "C[C@H](C#Cc1cccc(C(=O)NCC[C@@H](c2ccc(F)cc2)c2ccc(C(F)(F)F)cc2)c1)N(O)C(N)=O"
  IC50: "160 nM"
- compound: "CC(C#Cc1cccc(C(=O)NCCc2c[nH]c3ccccc23)c1)N(O)C(N)=O (centres undefined)"
  IC50: "1700 nM"
- compound: "NC(=O)N(O)CC#Cc1cccc(C(=O)NCc2ccccc2C(F)(F)F)c1"
  IC50: "4000 nM"
- compound: "CC(C#Cc1ccc(C(=O)NCc2ccccc2C(F)(F)F)cc1)N(O)C(N)=O (centres undefined)"
  IC50: "1000 nM"
- compound: "CC(C#Cc1cccc(C(=O)NCCC(c2ccccc2)c2ccccc2)c1)N(O)C(N)=O (centres undefined)"
  IC50: "300 nM"
- compound: "CC(C#Cc1cccc(C(=O)NCc2ccccc2OC(F)(F)F)c1)N(O)C(N)=O (centres undefined)"
  IC50: "1000 nM"
- compound: "CC(C#Cc1cccc(C(=O)NCCc2ccc(F)cc2)c1)N(O)C(N)=O (centres undefined)"
  IC50: "3100 nM"
- compound: "CC(C#Cc1cccc(C(=O)NCc2ccc(F)cc2C(F)(F)F)c1)N(O)C(N)=O (centres undefined)"
  IC50: "1300 nM"
- compound: "COc1ccc(CNC(=O)c2cccc(C#CC(C)N(O)C(N)=O)c2)c(C(F)(F)F)c1 (centres undefined)"
  IC50: "1700 nM"
- compound: "CC(C)CC(C#Cc1cccc(C(=O)NCc2ccccc2C(F)(F)F)c1)N(O)C(N)=O (centres undefined)"
  IC50: "600 nM"
- compound: "C[C@H](C#Cc1cccc(C(=O)NCCC(c2ccc(F)cc2)c2ccc(OC(F)(F)F)cc2)c1)N(O)C(N)=O (some centres undefined)"
  IC50: "260 nM"
- compound: "C[C@@H](C#Cc1cccc(C(=O)NCc2ccccc2C(F)(F)F)c1)N(O)C(N)=O"
  IC50: "700 nM"
